Species: Canis familiaris
test details: Maximum observed change in ADP95 from control value was determined in isolated canine cardiac uM
Assay type: functional, Canis lupus familiaris
Tag: t if measured Max delta APD95 is not below 40%, f if it is.

stdin: Hi team, for C[n+]1ccn(CC(O)c2ccccc2)c1.[Br-] (stereo not given) , is the recorded Max delta APD95 at or above 40%?
stdout: f

----------
Organism: Canis familiaris
test details: Maximum observed change in ADP95 from control value was determined in isolated canine cardiac uM
Type: functional, Canis lupus familiaris
readout label: Max delta APD95 (%)
Please respond with the number in % and leave the unit unwritten.

Some solved entries appear below for comparison.
{"compound": "CCCCCCC[n+]1ccn(CC(O)c2ccc(NS(C)(=O)=O)cc2)c1.O=P([O-])(O)O (stereo not drawn)", "u": "%", "Max delta APD95": 50}
{"compound": "CCCCCCC[n+]1ccn(CC(=O)c2ccc(NS(C)(=O)=O)cc2)c1.[Br-]", "u": "%", "Max delta APD95": 21}

Then this compound:
stdin: Reported Max delta APD95, compound C[n+]1ccn(C[C@@H](O)c2ccc(NS(C)(=O)=O)cc2)c1.[Cl-] : ____
stdout: 74

----------
Organism: Canis familiaris
test details: Concentration that causes 20% increase in ADP95 (action potential duration at 95% repolarization) was determined on isolated canine cardiac Purkinje fibers
Format: functional, Canis lupus familiaris, Purkinje fiber
readout label: Activity (µM)
Please respond with the number in µM and leave the unit unwritten.

Some solved entries appear below for comparison.
{"compound": "Cc1n(CC(O)c2ccc(NS(C)(=O)=O)cc2)cc[n+]1C.[Cl-] (centres undefined)", "u": "µM", "Activity": 0.8}
{"compound": "C[n+]1ccn(CC(O)c2ccc(NS(C)(=O)=O)cc2)c1.[Cl-] (centres undefined)", "u": "µM", "Activity": 1.6}
{"compound": "CC[n+]1ccn(CC(=O)c2ccc(NS(C)(=O)=O)cc2)c1.[Cl-]", "u": "µM", "Activity": 49.4}

stdin: Reported Activity, compound C[n+]1ccn(CC(=O)c2ccccc2)c1.[Br-] : ____
stdout: 69

----------
Organism: Canis familiaris
test details: Maximum observed change in ADP95 from control value was determined in isolated canine cardiac uM
Type: functional, Canis lupus familiaris
Heads up, the class ranges for Max delta APD95 are range 1 = under 40%, range 2 = from 40% up to 50%, range 3 = 50% and over

{"molecule": "C[n+]1ccn(CCCc2ccc(NS(C)(=O)=O)cc2)c1.O=P([O-])(O)O", "class label": "range 2"}
{"molecule": "C[n+]1ccn(CCC(=O)c2ccc(NS(C)(=O)=O)cc2)c1.[Cl-]", "class label": "range 1"}
{"molecule": "Cc1n(CC(=O)c2ccc(NS(C)(=O)=O)cc2)cc[n+]1C.[Cl-]", "class label": "range 1"}
{"molecule": "CC[n+]1ccn(CC(O)c2ccc(NS(C)(=O)=O)cc2)c1.[Cl-] (centres undefined)", "class label": "range 3"}
{"molecule": "C[n+]1ccn(CCc2ccc(NS(C)(=O)=O)cc2)c1.[I-]", "class label": "range 2"}

Please examine the following record next.
stdin: Bin this entry: C[n+]1ccn(C[C@H](O)c2ccc(NS(C)(=O)=O)cc2)c1.[Cl-]
stdout: range 3

----------
Species on record: Canis familiaris
test details: Maximum observed change in ADP95 from control value was determined in isolated canine cardiac uM
Format: functional, Canis lupus familiaris
readout label: Max delta APD95 (%)
Please respond with the number in % and leave the unit unwritten.

{"compound": "Cc1n(CC(O)c2ccc(NS(C)(=O)=O)cc2)cc[n+]1C.[Cl-] (stereo not drawn)", "u": "%", "Max delta APD95": 51}
{"compound": "C[n+]1ccn(CC(O)c2ccc(NS(C)(=O)=O)cc2)c1.[Cl-] (stereo not drawn)", "u": "%", "Max delta APD95": 50}

Then this compound:
stdin: Reported Max delta APD95, compound CCCCCCC[N+](CC)(CC)CCCCc1ccc(Cl)cc1.O=P([O-])(O)O [CLOFILIUM PHOSPHATE] : ____
stdout: 39
